Measured IC50, listed per entry.
Tested on: DENV-2-V594
Assay: Plaque assay, inhibition of DENV-2 infection in LLC-MK2 cells
Assay type: cell-based
Settings: Dengue virus, DENV2
Note: unit µM is implicit; provide only the numeric part.

molecule=Cc1cc2c(C(C)C)c(O)c(O)c(/C=N/n3c(=O)[nH][nH]c3=O)c2c(O)c1-c1c(C)cc2c(C(C)C)c(O)c(O)c(/C=N/n3c(=O)[nH][nH]c3=O)c2c1O target_or_system=DENV-2-V594 unit_abbrev=µM recorded_result=3.19

Here's the next entry for you.
Identify the reported IC50 for the following entry. Cc1cc2c(C(C)C)c(O)c(O)c(C=O)c2c(O)c1-c1c(C)cc2c(C(C)C)c(O)c(O)c(C=O)c2c1O [Gossypol, reference compound]
1.91

Attribution: paper PMC9202104
